# test system: UniProt P09960
# Sequence (P09960 whole entry): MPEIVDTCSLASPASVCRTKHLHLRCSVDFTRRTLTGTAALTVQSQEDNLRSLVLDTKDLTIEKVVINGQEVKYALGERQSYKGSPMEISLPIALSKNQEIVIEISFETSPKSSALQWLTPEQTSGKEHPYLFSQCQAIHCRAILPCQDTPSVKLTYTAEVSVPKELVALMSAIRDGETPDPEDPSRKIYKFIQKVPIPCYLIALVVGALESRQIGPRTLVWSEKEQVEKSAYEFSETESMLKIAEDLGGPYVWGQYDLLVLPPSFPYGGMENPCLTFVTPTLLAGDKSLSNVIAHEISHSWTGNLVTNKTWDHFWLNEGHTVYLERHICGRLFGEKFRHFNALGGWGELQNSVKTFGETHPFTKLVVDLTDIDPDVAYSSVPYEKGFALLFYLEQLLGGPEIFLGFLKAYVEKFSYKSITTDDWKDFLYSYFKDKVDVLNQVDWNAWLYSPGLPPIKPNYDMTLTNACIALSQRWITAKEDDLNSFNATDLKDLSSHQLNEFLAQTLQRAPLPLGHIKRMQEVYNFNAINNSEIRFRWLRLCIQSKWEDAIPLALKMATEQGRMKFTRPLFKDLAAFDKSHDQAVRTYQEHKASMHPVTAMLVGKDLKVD
# assay text: PGP peptidolysis assay by LC-MS/MS
# Type: biochemical
# Parameters: Full-length LTA4H containing a N-terminal (His)6-tag; (His)6-tag (N, cleaved yes); (Gly3-Ser)3 spacer (N, cleaved yes); made in house; host or cells: E. coli BL21 (DE3) star
# assay conditions: Table 1
# Protocol: The aminopeptidase activity of LTA4H was assessed with H-PGP-OH (Bachem, Switzerland) as substrate. Assays were performed at RT in black 384-well low volume plates (Greiner) and analyzed by LC-MS/MS. All compounds were tested as 8 point dose response curves in triplicates included on every plate. […] For peptide quantification, an HPLC instrument from Agilent Series 1290 (binary high pressure gradient system) with detectors UV, fluorescence and mass (single Quad) detectors was used. […]
Respond with y for Ratio IC50 PGP/Arg-AMC values of 0.4 and above, n for values below.

compound	group label
Oc1cc(-c2ccc(Oc3ccccc3)cc2)n[nH]1 [Compound 8, 3-(4-phenoxyphenyl)-1H-pyrazol-5-ol]	y
COc1ccc(Cc2ccccc2)cc1 [4-MDM, 4-Methoxydiphenylmethane, reference compound]	y
c1ccc(Cc2ccc(-c3c[nH]cn3)cc2)cc1 [Compound 2, 4-(4-benzylphenyl)-1H-imidazole]	y
c1ccc(Oc2ccc(-c3cc[nH]c3)cc2)cc1 [Compound 9, 3-(4-phenoxyphenyl)-1H-pyrrole]	n
Cn1cnc(-c2ccc(Oc3ccccc3)cc2)c1 [Compound 7]	y
